Give measured protein stability index for each item. Keep answers brief.
B1: TRAF3IP2 (parent)
chain: KQGSMNFRFIPVLFPNAKKEHVPT

# Variants of: B1
# experiment description: protein stability index of a GFP-peptide fusion (GPS, HEK-293T) (PSI 1-6); higher = more stable;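 note: lentivirally expressed fusions sorted by FACS into six bins by GFP to DsRed ratio, PSI derived from sequencing read proportions per bin multiplied by bin number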
# protocol conditions: c terminus: a fixed tail appended
Give bare numbers.

KQGSMNFRFIPVLFPNAKKEHVVT
1.4
KQGSMNFRFIPVLFPNAKKEHVPM
1.87
KQGSFNFRFIPVLFPNAKKEHVPT
1.52
KQGSMNFRLIPVLFPNAKKEHVPT
2.44
KQWSMNFRFIPVLFPNAKKEHVPT
2.25
KQESMNFRFIPVLFPNAKKEHVPT
2.09
KQGSMNFRFIPVLFPNQKKEHVPT
2.38
KQGSMNFRFCPVLFPNAKKEHVPT
2.3
KQGSMNFRFIPVLFPNAKKKHVPT
1.68
KQGSMNFRFIPVLFPNAKKEHGPT
2.4

Batch lookup, protein stability index per entry.
1. KQGSMNFRWIPVLFPNAKKEHVPT
2. KQGSMNFRFIPVLRPNAKKEHVPT

1: 2.31; 2: 1.8
